experiment: yeast display, Sf9 membrane polyspecificity reagent, FACS + sequencing; frameworks hold sequencing errors
quantity: polyreactivity (PSR sort gate)

| residues | result |
| --- | --- |
| QVQLVESGGGLVQAGGSLRLSSAASGRIFKRYTMGSYRQAPGKERELVAANTKRADRTNYADSVNGRFTISRDNAKNTVYLQMNSLKAVDTAVYYCNAEGQNDHPSNGYISYNYDYWGQGTQVTVSS | low polyreactivity |
| QVQLVESGGGLVQAGGSLRLSCAASGSIIYLYAMGWYRQAPGKERELVAAINDDAGSTYYADSVKGRFTISRDNAKNTVYLQMNSLKPEDTAVYYCNAGSRSTEYDYWGQGTQVTVSS | low polyreactivity |
| QVKLVESGGGLVQAGGSLRLSCAAYGFIISYYAMGWYRQQPGKEREFVAVISRGGNTYYADSVKGRFTISRDNAKNTVYLQMNSLKPVDTAVYYCAASVPPYYPRQRHDGYDYWVQGTQVTVSS | low polyreactivity |
| QVQLVESGGGLVQAGGSLRLSCAASGSISIFYMGWYRQAPGKERELVAAISWSGGRTYYADSVKGRFTISRDNAKNTVYLQMNSLKREDTAVYYCAASRSFPGYGLYYYWGQGTQVTVSS | low polyreactivity |

---

assay: yeast display, Sf9 membrane polyspecificity reagent, FACS + sequencing; frameworks hold sequencing errors
quantity: polyreactivity (PSR sort gate)

| residues | polyreactivity (PSR sort gate) |
| --- | --- |
| QVQLVESGGGLVQAGGSLRLSCASGRIFKKNALGWYRQAPGKERELVAGITISGGRTYYADSVKGRFTISRDNAKNTVYLQMNSLKPEDTAVYYCNAGPDRRVSYYRLLDHWGQGTQVTVSS | low polyreactivity |
| QVQLVESGGGLVQAGGSLRLSCAASGSTFLNYAMGWYRQAPWKERELVAAISGRGGRTYYADSVKGRFTISRDNATNTVYLQMNSLKPEDTAVYYCANKRRGGYLYRQELDYWGQGTQVTVSS | high polyreactivity |
| QVQLVESGGGLVQAGGSLRLSCAASGTFFIYAMGWYRQAPGKERELVATISTGGSTNYADSVKGRFTISRDNAKNTVYLQMNSLKPEDTAVYYCAAEWLYPHDGGYPRPMDYWGQGTQVTVSS | low polyreactivity |
| QVQLVESGGGLVQAGGSLRLCCAASGIIFYSYAMGWYRQAPGKEREFVAAITNSDGSTYYADSVKGRFTISRDNAKNTVYLQMNSVKPEDTAVYMFYWGQGTQVTVSS | low polyreactivity |
| QVQLVESGGGLVQAGGSLRLSCAASGSIFSYYAMGWYRQAPGKERELVAGISISTGSTYYADSVKGRFTISRDNAKNTVYLQMNSLIPEDTAVYYCNASALDPLYAKDDYWGQGTQVTVSS | low polyreactivity |
| QVQLEESGGGLVQAGGSLRLSCDASGRTFDTNAMGWYIQAPGKERELVAVITARGGNTSYADSVKGRFTISRDNSKNTVYLQMNSLKPEDTAVYYCAAPADDTVHYQNYYWGQGTQVTVSS | low polyreactivity |
| QVQLVESGGGLVQAGGSLRLSCAASGFIFRLYALGWYRQAPGKERELVAAIRSAGSTYYADSVKGRFTISRDNAKNTVYLQMNSLKPEDTPVYYCAARSGHTYYFIGNYWGQGTQVTVSS | high polyreactivity |
| QVQLVESGGGLVQAGGSLRLSCAASGSIFTNYPMGCYRQAPGKERELVAAISQSGDTTYYADSVKGRFTISRDNAKNTVYLQMNSLKPEDSSVYYCAAQYYRWFYYWGQGTQVTVSS | high polyreactivity |
| QVQLVESGGGLVQAGGSRSLSCAASGSTFYSYAMGWYRQAPGKERELVAAINWDGVSTYYADSVKGRFTISRDNAKNTVYLQMNSLKPEDTAVYYCAAELFSGYRISGTYYYWGQGTQVTVSS | low polyreactivity |
| QVQLEESGGGLVQAGGSLRLSCAASGITFYYNDMGWYRQAPGKERELVAAISSGGTTNYADSVKGRFTISRDNAKNTFYLAMNSLKPEDTAVYYCATGYAEPEWDPFVSDYDYWGQGTQVTVSS | low polyreactivity |

Proceed to the following item.
(Q) Need polyreactivity (PSR sort gate) of QVQLVESGGGLVQAGGSLRLSCAASGSIFYFYAMGWYRQAPGKERELVAAISWSGGSTYYADSVKGRFTISRDNAKNTVYLQMNSLKPEDTAVYYCNAADYWYWENDYWGQGTQVTVSS , thanks.
(A) low polyreactivity
